FYI, the data here is from PubChem BioAssay AID1963440.

Test system: NCI-H1417 complex spheroids, growth % test/control
Assay: Anticancer human tumor NCI-H1417 cell line growth inhibition [Asc];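 note: spheroids exposed to compounds for 7 days; 100% = DMSO vehicle control wells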
Details: second compound 0.1 µM; first compound 0.00949 µM; active compounds read low
Result type: viability, T/C

Data request: For the molecule CCN1C(C(=O)NC23CCC(C(=O)O)(CC2)CC3)C(c2cccc(Cl)c2F)C2(C(=O)Nc3cc(Cl)ccc32)C12CCCCC2 (configuration not stated) + Cc1c(S(C)(=O)=O)c(-c2cc(F)cc(N3CCN(c4ccc(NS(=O)(=O)c5ccc(NC(CCN6CCC(C(=O)OCCCP(=O)(O)O)CC6)CSc6ccccc6)c(S(=O)(=O)C(F)(F)F)c5)cc4)CC3)c2)c(-c2ccc(Cl)cc2)n1C(C)C , what viability, T/C is on record?
Data returned: 78.9%

Data request: For the molecule Cc1nc(N2CCC3(CC2)COC(C)C3N)c(CO)nc1Sc1ccnc(N)c1Cl (configuration not stated) + Cc1c(S(C)(=O)=O)c(-c2cc(F)cc(N3CCN(c4ccc(NS(=O)(=O)c5ccc(NC(CCN6CCC(C(=O)OCCCP(=O)(O)O)CC6)CSc6ccccc6)c(S(=O)(=O)C(F)(F)F)c5)cc4)CC3)c2)c(-c2ccc(Cl)cc2)n1C(C)C , what viability, T/C is on record?
Data returned: 81.4%

====

Can you tell me viability, T/C for the items I'm about to list?
Tested on: NCI-H1417 complex spheroids, growth % test/control
Test: Anticancer human tumor NCI-H1417 cell line growth inhibition [Asc];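 note: spheroids exposed to compounds for 7 days; 100% = DMSO vehicle control wells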
Conditions: second compound 0.1 µM; first compound 0.001 µM; active compounds read low
Quick reminder: number only, in %, skip the unit.

Data request: For the compound NC1CCC(NC2CC2c2ccccc2)CC1 (centres undefined) + CNC(C)C(=O)NC1CN(S(=O)(=O)c2cccc(S(=O)(=O)N3CCC4CCC(C(=O)NC(c5ccccc5)c5ccccc5)N4C(=O)C(NC(=O)C(C)NC)C3)c2)CCC2CCC(C(=O)NC(c3ccccc3)c3ccccc3)N2C1=O , what viability, T/C is on record?
Data returned: 91

Data request: For the compound NC1CCC(NC2CC2c2ccccc2)CC1 (centres undefined) + Cc1c(S(C)(=O)=O)c(-c2cc(F)cc(N3CCN(c4ccc(NS(=O)(=O)c5ccc(NC(CCN6CCC(C(=O)OCCCP(=O)(O)O)CC6)CSc6ccccc6)c(S(=O)(=O)C(F)(F)F)c5)cc4)CC3)c2)c(-c2ccc(Cl)cc2)n1C(C)C , what viability, T/C is on record?
Data returned: 69

Data request: For the compound Cn1ncnc1[C@H]1c2n[nH]c(=O)c3cc(F)cc(c23)N[C@@H]1c1ccc(F)cc1 + CNC(C)C(=O)NC1CN(S(=O)(=O)c2cccc(S(=O)(=O)N3CCC4CCC(C(=O)NC(c5ccccc5)c5ccccc5)N4C(=O)C(NC(=O)C(C)NC)C3)c2)CCC2CCC(C(=O)NC(c3ccccc3)c3ccccc3)N2C1=O , what viability, T/C is on record?
Data returned: 93

Data request: For the compound Cn1ncnc1[C@H]1c2n[nH]c(=O)c3cc(F)cc(c23)N[C@@H]1c1ccc(F)cc1 + Cc1c(S(C)(=O)=O)c(-c2cc(F)cc(N3CCN(c4ccc(NS(=O)(=O)c5ccc(NC(CCN6CCC(C(=O)OCCCP(=O)(O)O)CC6)CSc6ccccc6)c(S(=O)(=O)C(F)(F)F)c5)cc4)CC3)c2)c(-c2ccc(Cl)cc2)n1C(C)C , what viability, T/C is on record?
Data returned: 83.2

====

Tested on: NCI-H1417 complex spheroids, growth % test/control
Assay: Anticancer human tumor NCI-H1417 cell line growth inhibition [Asc];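 note: spheroids exposed to compounds for 7 days; 100% = DMSO vehicle control wells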
Settings: second compound 0.316 µM; first compound 0.00949 µM; active compounds read low
Result type: viability, T/C (%)
Quick reminder: number only, in %, skip the unit.

Data request: Return viability, T/C measured with NCI-H1417 complex spheroids, growth % test/control given this molecule: NC(=O)C(=Cn1cnc(-c2cc(C(F)(F)F)cc(C(F)(F)F)c2)n1)c1cncnc1 + Cc1c(S(C)(=O)=O)c(-c2cc(F)cc(N3CCN(c4ccc(NS(=O)(=O)c5ccc(NC(CCN6CCC(C(=O)OCCCP(=O)(O)O)CC6)CSc6ccccc6)c(S(=O)(=O)C(F)(F)F)c5)cc4)CC3)c2)c(-c2ccc(Cl)cc2)n1C(C)C
Data returned: 20.7

Data request: Return viability, T/C measured with NCI-H1417 complex spheroids, growth % test/control given this molecule: NC(=O)C(=Cn1cnc(-c2cc(C(F)(F)F)cc(C(F)(F)F)c2)n1)c1cncnc1 + CNC(C)C(=O)NC1CN(S(=O)(=O)c2cccc(S(=O)(=O)N3CCC4CCC(C(=O)NC(c5ccccc5)c5ccccc5)N4C(=O)C(NC(=O)C(C)NC)C3)c2)CCC2CCC(C(=O)NC(c3ccccc3)c3ccccc3)N2C1=O
Data returned: 112

====

Tested on: NCI-H1417 complex spheroids, growth % test/control
Experiment: Anticancer human tumor NCI-H1417 cell line growth inhibition [Asc];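 note: spheroids exposed to compounds for 7 days; 100% = DMSO vehicle control wells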
Conditions: second compound 0.3 µM; first compound 0.0316 µM; active compounds read low
Result type: viability, T/C (%)
Quick reminder: number only, in %, skip the unit.

Data request: For the molecule O=C(c1ccc(F)c(F)c1Nc1ccc(I)cc1F)N1CC(O)([C@@H]2CCCCN2)C1 + CCN1C(C(=O)NC23CCC(C(=O)O)(CC2)CC3)C(c2cccc(Cl)c2F)C2(C(=O)Nc3cc(Cl)ccc32)C12CCCCC2 , what viability, T/C is on record?
Data returned: 91.6

Data request: For the molecule CNC(C)C(=O)NC1CN(S(=O)(=O)c2cccc(S(=O)(=O)N3CCC4CCC(C(=O)NC(c5ccccc5)c5ccccc5)N4C(=O)C(NC(=O)C(C)NC)C3)c2)CCC2CCC(C(=O)NC(c3ccccc3)c3ccccc3)N2C1=O (stereo not given) + CCN1C(C(=O)NC23CCC(C(=O)O)(CC2)CC3)C(c2cccc(Cl)c2F)C2(C(=O)Nc3cc(Cl)ccc32)C12CCCCC2 , what viability, T/C is on record?
Data returned: 94.6

Data request: For the molecule O=C(c1cc(Cc2n[nH]c(=O)c3ccccc23)ccc1F)N1CCN(C(=O)C2CC2)CC1 + CCN1C(C(=O)NC23CCC(C(=O)O)(CC2)CC3)C(c2cccc(Cl)c2F)C2(C(=O)Nc3cc(Cl)ccc32)C12CCCCC2 , what viability, T/C is on record?
Data returned: 101

Data request: For the molecule Cn1ncnc1[C@H]1c2n[nH]c(=O)c3cc(F)cc(c23)N[C@@H]1c1ccc(F)cc1 + CCN1C(C(=O)NC23CCC(C(=O)O)(CC2)CC3)C(c2cccc(Cl)c2F)C2(C(=O)Nc3cc(Cl)ccc32)C12CCCCC2 , what viability, T/C is on record?
Data returned: 43.6

Data request: For the molecule C#Cc1c(F)ccc2cc(O)cc(-c3ncc4c(N5CC6CCC(C5)N6)nc(OCC56CCCN5CC(F)C6)nc4c3F)c12 (stereo not given) + CCN1C(C(=O)NC23CCC(C(=O)O)(CC2)CC3)C(c2cccc(Cl)c2F)C2(C(=O)Nc3cc(Cl)ccc32)C12CCCCC2 , what viability, T/C is on record?
Data returned: 98.2

Data request: For the molecule COc1c(OCCCN2CCOCC2)ccc2c3n(c(=NC(=O)c4cnc(N)nc4)nc12)CCN3 + CCN1C(C(=O)NC23CCC(C(=O)O)(CC2)CC3)C(c2cccc(Cl)c2F)C2(C(=O)Nc3cc(Cl)ccc32)C12CCCCC2 , what viability, T/C is on record?
Data returned: 81.2

Data request: For the molecule NC1CCC(NC2CC2c2ccccc2)CC1 (stereo not given) + CCN1C(C(=O)NC23CCC(C(=O)O)(CC2)CC3)C(c2cccc(Cl)c2F)C2(C(=O)Nc3cc(Cl)ccc32)C12CCCCC2 , what viability, T/C is on record?
Data returned: 63.8

Data request: For the molecule C=CC(=O)N1CCN(c2nc(=O)n(-c3c(C)ccnc3C(C)C)c3nc(-c4c(O)cccc4F)c(F)cc23)C(C)C1 (stereo not given) + CCN1C(C(=O)NC23CCC(C(=O)O)(CC2)CC3)C(c2cccc(Cl)c2F)C2(C(=O)Nc3cc(Cl)ccc32)C12CCCCC2 , what viability, T/C is on record?
Data returned: 102

Data request: For the molecule C=C(F)C(=O)N1CCN(c2nc(OCC3CCCN3C)nc3c2CCN(c2cccc4cccc(Cl)c24)C3)CC1CC#N (stereo not given) + CCN1C(C(=O)NC23CCC(C(=O)O)(CC2)CC3)C(c2cccc(Cl)c2F)C2(C(=O)Nc3cc(Cl)ccc32)C12CCCCC2 , what viability, T/C is on record?
Data returned: 103

Data request: For the molecule CCN1CCN(Cc2ccc(Nc3ncc(F)c(-c4cc(F)c5nc(C)n(C(C)C)c5c4)n3)nc2)CC1 + CCN1C(C(=O)NC23CCC(C(=O)O)(CC2)CC3)C(c2cccc(Cl)c2F)C2(C(=O)Nc3cc(Cl)ccc32)C12CCCCC2 , what viability, T/C is on record?
Data returned: 110
